Biological target: human Tissue Factor (hTF), endogenously expressed on human TF-positive cells (human, UniProt P13726 33-295)
Assay: cell-based or functional assay
MEASURED QUANTITY: % GM-CSF, 100 nM antibody, MDA-MB-231 cells + FVIIa (%)
Numeric answer only, unit % assumed.

Lab note: measured % GM-CSF, 100 nM antibody, MDA-MB-231 cells + FVIIa of anti-TF antibody 54E (antibody, human IgG1, V domains shown, Human IgG1) VH: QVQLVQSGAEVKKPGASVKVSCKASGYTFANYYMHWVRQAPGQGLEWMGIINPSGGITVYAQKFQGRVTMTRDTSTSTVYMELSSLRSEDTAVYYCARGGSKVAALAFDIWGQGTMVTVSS VL: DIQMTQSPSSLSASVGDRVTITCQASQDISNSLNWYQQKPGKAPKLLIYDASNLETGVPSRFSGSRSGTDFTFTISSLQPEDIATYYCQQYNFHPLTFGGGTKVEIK was 5

Lab note: measured % GM-CSF, 100 nM antibody, MDA-MB-231 cells + FVIIa of anti-TF antibody 25A (antibody, human IgG1, V domains shown, Human IgG1) VH: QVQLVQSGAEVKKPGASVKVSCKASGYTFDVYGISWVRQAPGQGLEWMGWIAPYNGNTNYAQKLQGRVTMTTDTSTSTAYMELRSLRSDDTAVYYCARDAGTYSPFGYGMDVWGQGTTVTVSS VL: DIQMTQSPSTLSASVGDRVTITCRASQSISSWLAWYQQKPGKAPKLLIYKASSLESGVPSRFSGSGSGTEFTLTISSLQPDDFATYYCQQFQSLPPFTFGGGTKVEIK was 22

Lab note: measured % GM-CSF, 100 nM antibody, MDA-MB-231 cells + FVIIa of anti-TF antibody 39A (antibody, human IgG1, V domains shown, Human IgG1) VH: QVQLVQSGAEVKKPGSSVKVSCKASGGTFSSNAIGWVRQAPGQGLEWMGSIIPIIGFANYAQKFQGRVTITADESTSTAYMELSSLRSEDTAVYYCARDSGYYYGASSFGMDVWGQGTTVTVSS VL: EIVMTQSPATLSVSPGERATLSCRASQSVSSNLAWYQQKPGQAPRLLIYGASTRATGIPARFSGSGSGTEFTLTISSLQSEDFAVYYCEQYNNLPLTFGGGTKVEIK was 7

Lab note: measured % GM-CSF, 100 nM antibody, MDA-MB-231 cells + FVIIa of anti-TF antibody 43D8 (antibody, human IgG1, kappa, V domains shown, Human IgG1) VH: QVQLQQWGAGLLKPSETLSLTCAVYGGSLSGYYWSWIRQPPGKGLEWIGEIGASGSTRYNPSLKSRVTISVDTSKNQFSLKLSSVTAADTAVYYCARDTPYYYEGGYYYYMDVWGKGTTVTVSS VL: EIVLTQSPGTLSLSPGERATLSCRASQSVSSSFLAWYQQKPGQAPRLLIYGAYSRATGIPDRFSGSGSGTDFTLTISRLEPEDFAVYYCQQAGVVPYTFGGGTKVEIKR was 12

Lab note: measured % GM-CSF, 100 nM antibody, MDA-MB-231 cells + FVIIa of anti-TF antibody 25G (antibody, human IgG1, kappa, V domains shown, Human IgG1) VH: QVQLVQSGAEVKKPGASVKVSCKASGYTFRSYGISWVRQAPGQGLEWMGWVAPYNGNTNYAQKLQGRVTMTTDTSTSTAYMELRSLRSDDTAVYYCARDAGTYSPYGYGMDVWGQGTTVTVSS VL: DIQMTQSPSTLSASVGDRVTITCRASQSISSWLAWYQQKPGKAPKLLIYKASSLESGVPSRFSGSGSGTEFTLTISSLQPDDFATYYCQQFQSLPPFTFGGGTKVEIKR was 19

Lab note: measured % GM-CSF, 100 nM antibody, MDA-MB-231 cells + FVIIa of anti-TF antibody 25G9 (antibody, human IgG1, kappa, V domains shown, Human IgG1) VH: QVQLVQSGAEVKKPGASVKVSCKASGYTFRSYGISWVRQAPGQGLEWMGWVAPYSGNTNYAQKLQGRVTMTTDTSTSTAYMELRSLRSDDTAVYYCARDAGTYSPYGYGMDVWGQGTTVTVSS VL: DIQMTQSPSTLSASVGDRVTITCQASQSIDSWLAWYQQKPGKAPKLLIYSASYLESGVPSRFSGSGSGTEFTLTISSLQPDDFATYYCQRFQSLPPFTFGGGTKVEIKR was 25

Lab note: measured % GM-CSF, 100 nM antibody, MDA-MB-231 cells + FVIIa of anti-TF antibody 43D (antibody, human IgG1, V domains shown) VH: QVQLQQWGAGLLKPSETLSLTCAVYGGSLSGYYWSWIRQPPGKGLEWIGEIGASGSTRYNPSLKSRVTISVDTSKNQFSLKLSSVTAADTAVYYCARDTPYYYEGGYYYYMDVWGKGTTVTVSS VL: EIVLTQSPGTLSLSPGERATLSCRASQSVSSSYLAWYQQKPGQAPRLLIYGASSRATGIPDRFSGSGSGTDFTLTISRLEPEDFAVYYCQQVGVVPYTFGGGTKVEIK was 12

# credit: patent US20240166765A1
